- COMPOUND: "COC(=O)C1=C(C)NC(c2cccnc2)=NC1c1ccccc1Cl (stereo not shown)"
  melting point: "131 to 133 °C"
- COMPOUND: "CCCOOCC1=C(C)NC(c2ccccn2)=NC1c1ccccc1Cl (stereo not shown)"
  melting point: "105 to 110 °C"
- COMPOUND: "CCCCOC(=O)C1=C(C)NC(c2ccccn2)=NC1c1ccccc1Cl (stereo not shown)"
  melting point: "176 to 178 °C"
- COMPOUND: "COC(=O)C1=C(C)NC(c2ccccn2)=NC1c1ccccc1F (stereo not shown)"
  melting point: "217 to 218 °C"
- COMPOUND: "COOCC1=C(C)NC(c2ccccn2)=NC1c1ccccc1O (stereo not shown)"
  melting point: "131 to 132 °C"
- COMPOUND: "COC(=O)C1=C(C)NC(c2ccccn2)=NC1c1cc([N+](=O)[O-])ccc1Cl (stereo not shown)"
  melting point: "151 to 153 °C"
- COMPOUND: "COC(=O)C1=C(C)NC(c2ccccn2)=NC1c1cccc2sc(-c3ccccc3)nc12 (stereo not shown)"
  melting point: "172 to 173 °C"
- COMPOUND: "COC(=O)C1=C(C)NC(c2ccccn2)=NC1c1cccc(Cl)c1Cl (stereo not shown)"
  melting point: "125 to 127 °C"
- COMPOUND: "COC(=O)C1=C(C)NC(c2ccccn2)=NC1C1CCCCC1.Cl (stereo not shown)"
  melting point: "149 to 150 °C"
- COMPOUND: "COOCC1=C(C)NC(c2ccccn2)=NC1c1ccco1 (stereo not shown)"
  melting point: "122 to 124 °C"
- COMPOUND: "COOCC1=C(C)NC(c2ccccn2)=NC1c1cccc(Cl)c1 (stereo not shown)"
  melting point: "122 to 123 °C"
- COMPOUND: "COC(=O)C1=C(C)NC(c2ccccn2)=NC1c1ccc(C#N)cc1 (stereo not shown)"
  melting point: "141 to 143 °C"
- COMPOUND: "COC(=O)C1=C(C)NC(c2ccccn2)=NC1c1ccccc1C (stereo not shown)"
  melting point: "100 to 101 °C"
- COMPOUND: "COOCC1=C(C)NC(c2ccccn2)=NC1c1cccc([N+](=O)[O-])c1 (stereo not shown)"
  melting point: "179 to 180 °C"
- COMPOUND: "CC1=C(C(=O)OC(C)C)C(c2ccccc2Cl)N=C(c2ccccn2)N1 (stereo not shown)"
  melting point: "93 to 95 °C"
- COMPOUND: "COC(=O)C1=C(C)NC(c2ccccn2)=NC1c1ccc(Cl)cc1 (stereo not shown)"
  melting point: "201 to 202 °C"
- COMPOUND: "COC(=O)C1=C(C)NC(c2ccccn2)=NC1c1ccc(F)cc1[N+](=O)[O-] (stereo not shown)"
  melting point: "175 to 176 °C"
- COMPOUND: "CCOC(=O)C1=C(C)NC(c2ccncc2)=NC1c1ccccc1Cl (stereo not shown)"
  melting point: "101 to 103 °C"
- COMPOUND: "COC(=O)C1=C(C)NC(c2ccccn2)=NC1c1ccsc1 (stereo not shown)"
  melting point: "108 to 109 °C"
- COMPOUND: "COC(=O)C1=C(C)NC(c2ccccn2)=NC1c1cccc2ncc(-c3ccccc3)cc12 (stereo not shown)"
  melting point: "176 to 177 °C"
- COMPOUND: "CCOC(=O)C1=C(C)NC(c2ccccn2)=NC1c1ccccc1 (stereo not shown)"
  melting point: "101 to 103 °C"
- COMPOUND: "COC(=O)C1=C(C)NC(c2ccccn2)=NC1c1ccc(-n2ccnn2)cc1 (stereo not shown)"
  melting point: "149 to 150 °C"

Each recorded value in this set is attributed to patent US6436943B1.
